# target desc: Epidermal growth factor receptor (Homo sapiens, UniProt P00533)
# Sequence (P00533 whole entry): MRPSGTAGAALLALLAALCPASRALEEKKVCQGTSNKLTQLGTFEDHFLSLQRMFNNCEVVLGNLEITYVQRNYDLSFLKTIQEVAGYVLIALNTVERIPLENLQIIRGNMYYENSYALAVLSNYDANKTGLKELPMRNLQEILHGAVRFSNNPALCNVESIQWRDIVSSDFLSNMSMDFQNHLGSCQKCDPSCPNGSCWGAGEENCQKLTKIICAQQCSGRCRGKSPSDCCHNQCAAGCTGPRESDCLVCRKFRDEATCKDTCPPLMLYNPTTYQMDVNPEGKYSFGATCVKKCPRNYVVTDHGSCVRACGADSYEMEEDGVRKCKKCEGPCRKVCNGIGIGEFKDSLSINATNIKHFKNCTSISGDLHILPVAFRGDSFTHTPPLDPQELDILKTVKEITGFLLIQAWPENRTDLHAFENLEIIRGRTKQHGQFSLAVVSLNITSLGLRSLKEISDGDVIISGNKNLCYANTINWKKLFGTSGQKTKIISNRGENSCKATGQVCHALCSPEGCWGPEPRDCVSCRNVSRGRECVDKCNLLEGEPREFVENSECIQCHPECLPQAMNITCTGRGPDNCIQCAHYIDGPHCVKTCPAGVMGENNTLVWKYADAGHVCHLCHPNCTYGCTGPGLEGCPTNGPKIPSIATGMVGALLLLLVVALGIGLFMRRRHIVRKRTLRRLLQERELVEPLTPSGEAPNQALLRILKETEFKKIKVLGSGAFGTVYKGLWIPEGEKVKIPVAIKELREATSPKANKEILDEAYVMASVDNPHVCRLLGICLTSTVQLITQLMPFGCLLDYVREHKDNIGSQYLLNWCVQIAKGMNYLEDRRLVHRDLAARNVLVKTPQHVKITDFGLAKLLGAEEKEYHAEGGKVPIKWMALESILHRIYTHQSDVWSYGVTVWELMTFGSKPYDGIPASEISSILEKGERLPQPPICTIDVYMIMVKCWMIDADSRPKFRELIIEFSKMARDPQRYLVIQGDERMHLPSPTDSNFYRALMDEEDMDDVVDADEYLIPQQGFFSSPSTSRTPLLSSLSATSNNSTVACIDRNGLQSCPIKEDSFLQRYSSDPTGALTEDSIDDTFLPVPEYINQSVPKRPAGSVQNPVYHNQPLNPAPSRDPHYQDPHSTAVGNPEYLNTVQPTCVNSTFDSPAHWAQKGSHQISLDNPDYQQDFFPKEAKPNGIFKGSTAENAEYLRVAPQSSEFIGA
# protocol description: Inhibition of Epidermal growth factor receptor autophosphorylation in A431 cells
pIC50: −log10 of the molar value.
Label Condition met for high-side pIC50 (at or above 7) and Condition not met for low-side pIC50 (below it).

Illustrative cases are given below, each with its answer.
Nc1cc2sc3c(Nc4cccc(Br)c4)ncnc3c2cc1F = Condition met
COc1ccc2[nH]c3ncnc(Nc4cccc(Br)c4)c3c2c1 = Condition met
Cn1c2ccccc2c2c(Nc3cccc(Br)c3)ncnc21 = Condition not met
Nc1nc(Nc2cccc(Br)c2)c2c(n1)[nH]c1ccccc12 = Condition not met

Test whether the compound CNc1ccc2sc3c(Nc4cccc(Br)c4)ncnc3c2c1 records pIC50 of 7 or higher.
Condition met
